biological target: Dickkopf-related protein 1 (Homo sapiens); experiment: small molecules binding DKK1 protein – biochemical, small-molecule microarray, 635 nm fluorescence scan, primary screen (AID 1106); settings: higher = more signal;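 further: score merges emission near 667 nm with signal to noise over three replicate slides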
measured.metric: composite z-score
Form field (numeric): enter value without unit.

Record excerpt, results attached:
COCC(=C=CC[C@@H](O)c1ccccc1OCCO)C[C@@H](O)COCc1ccccc1 ... -0.466
CCCCC(O)C1C=CC2C(=O)N(Cc3ccccc3)C(=O)C2N1n1cnnc1 (stereo not given) ... 0.178

IN: Please state recorded composite z-score (tested on Dickkopf-related protein 1 (Homo sapiens)) of "O=C1N(CCS(=O)(=O)c2ccccc2)Cc2ccccc2C[C@@]12COC(c1ccc(OCCCO)cc1)=N2"
OUT: 0.628

IN: Now the same for "CO[C@H]1O[C@H](CO)[C@@H](OC(=O)Nc2ccc(C(F)(F)F)cc2)[C@H](OC(=O)Nc2ccccc2)[C@H]1OC(=O)Nc1ccccc1"
OUT: 0.0148

IN: Now the same for C=C(C)[C@@H]1CC=C(C(O)C2C=CC3C(=O)N(C4CCCCC4)C(=O)C3N2Nc2ccc(OC)cc2)CC1 (stereo not given in full)
OUT: 0.21

----------
test: small molecules captured by biotinylated probe aFGF10 – biochemical, small-molecule microarray, fluorescence 635/667, stem cell growth factor project, primary screen (AID 1071); details: higher = more signal;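 further: score merges 667 nm spot intensity and signal to noise from triplicate slides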
measured.metric: composite z-score
Form field (numeric): enter value without unit.

C[C@H]1ON(c2ccccc2)[C@@H](c2ccccc2)[C@@H]1C(=O)N1C(=O)OC[C@@H]1c1ccccc1 ... 0.602

IN: Entry under review: "O=C(Nc1cc(Br)ccc1C(=O)NCc1cccc(O)c1)c1ccccc1" . Reported composite z-score?
OUT: 0.478

IN: Now the same for "COCC(=C=CC[C@@H](O)c1ccccc1OCCO)C[C@@H](O)COCc1ccccc1"
OUT: 1.06

IN: Now the same for COc1cc(C(O)C2C=CC3C(=O)N(C)C(=O)C3N2NC(=O)OC(C)(C)C)cc(OC)c1OC (stereo not drawn)
OUT: 0.469

IN: Now the same for "CCCN1C(=O)[C@@H]2Cc3c([nH]c4ccccc34)[C@@H](c3cccc(O)c3)N2C1=O"
OUT: 0.428

IN: Now the same for CCN(CC)c1ccc(N2CC=CC34O[C@@H]5/C=C\CCCOC(=O)C5[C@H]3C(=O)N(CCCCCO)[C@@H]4C2=O)cc1 (stereo partly drawn)
OUT: -1.03

IN: Now the same for "C=CCN1C(=O)[C@@]2(O[C@@H](CCn3cc([C@H](O)c4ccccc4)nn3)[C@H]([Si](C)(C)c3ccc(OC)cc3)[C@H]2C)c2cc(NC(=O)c3ccc(OC)cc3)ccc21"
OUT: 0.0737

IN: Now the same for "[N-]=[N+]=NCc1ccccc1[C@H]1OC(c2ccc(OCCCO)cc2)=N[C@@]1(Cc1ccccc1N=[N+]=[N-])C(=O)NCCN1CCOCC1"
OUT: 0.981

----------
Below is a list of entries, each paired with its recorded composite z-score value.
molecular target: Left-right determination factor 2 (Homo sapiens) (UniProt O00292); assay: small molecules binding LEFTY2 protein – biochemical, small-molecule microarray, 635 nm fluorescence scan, primary screen (AID 1110); conditions: higher = more signal
Sequence (O00292 whole entry, looked up): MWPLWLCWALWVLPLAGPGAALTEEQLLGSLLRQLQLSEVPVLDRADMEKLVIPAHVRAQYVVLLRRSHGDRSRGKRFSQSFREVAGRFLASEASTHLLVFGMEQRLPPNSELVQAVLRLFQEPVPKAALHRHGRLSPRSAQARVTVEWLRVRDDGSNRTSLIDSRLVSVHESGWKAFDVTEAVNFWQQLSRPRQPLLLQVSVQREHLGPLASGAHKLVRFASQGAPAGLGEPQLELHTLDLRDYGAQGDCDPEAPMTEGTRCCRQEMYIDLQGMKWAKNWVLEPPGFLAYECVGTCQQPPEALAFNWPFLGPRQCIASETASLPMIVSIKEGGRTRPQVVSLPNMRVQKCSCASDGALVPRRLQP
Form field (numeric): enter value without unit.

IN: Entry under review: CCN(CC)c1ccc(N2CC=CC34O[C@@H]5/C=C\CCCOC(=O)C5[C@H]3C(=O)N(CCCCCO)[C@@H]4C2=O)cc1 (some centres not stated) . Reported composite z-score?
OUT: -1.57

The measurements presented in this section are drawn from PubChem BioAssay.
